Each record here notes measured IC50.
Biological target: KRAS G13D (Homo sapiens (Human), UniProt P01116+P62937, G13D)
Sequence (P01116-2 other isoform, or with tags, fused parts or gaps G13D): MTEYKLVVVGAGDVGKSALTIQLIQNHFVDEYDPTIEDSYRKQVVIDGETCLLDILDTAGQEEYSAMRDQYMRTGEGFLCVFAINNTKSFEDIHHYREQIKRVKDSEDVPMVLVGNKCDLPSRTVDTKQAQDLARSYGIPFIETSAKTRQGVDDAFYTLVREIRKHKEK
Sequence (P62937 whole entry): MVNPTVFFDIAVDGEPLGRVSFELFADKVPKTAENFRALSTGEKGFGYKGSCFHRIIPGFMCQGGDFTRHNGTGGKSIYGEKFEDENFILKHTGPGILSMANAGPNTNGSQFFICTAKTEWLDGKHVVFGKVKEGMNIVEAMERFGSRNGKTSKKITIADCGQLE
Experiment: Ras-Raf (BRAF RBD) disruption / FRET / MOA assay, KRAS G13D
Type: biochemical
Conditions: read-out: IC50* KRAS G13D FRET data
MEASURE: IC50

molecule="CCn1c(-c2cccnc2[C@H](C)OC)c2c3cc(ccc31)-c1csc(n1)C[C@H](NC(=O)[C@H](C(C)C)N(C)C(=O)N(C)C1CN(C(=O)/C=C/C3CN(C)C3)C1)C(=O)N1CCC[C@H](N1)C(=O)OCC(C)(C)C2 (atropisomer, axis not shown)" result_value="0.1 to 1 µM"
molecule="C=CC(=O)N(C)C[C@@H]1CCN1C(=O)N(C)[C@H](C(=O)N[C@H]1Cc2nc(cs2)-c2ccc3c(c2)c(c(-c2cccnc2[C@H](C)OC)n3CC)CC(C)(C)COC(=O)[C@@H]2CCCN(N2)C1=O)C(C)C (atropisomer, axis not shown)" result_value="1 to 10 µM"
molecule="C=CC(=O)N1CCN(C(=O)N(C)[C@H](C(=O)N[C@H]2Cc3nc(cs3)-c3ccc4c(c3)c(c(-c3cccnc3[C@H](C)OC)n4CC)CC(C)(C)COC(=O)[C@@H]3CCCN(N3)C2=O)C(C)C)[C@@H]2C[C@@H]21 (atropisomer, axis not shown)" result_value="0.1 to 1 µM"
molecule="C=CC(=O)N1CCO[C@H]2CCN(C(=O)N(C)[C@H](C(=O)N[C@H]3Cc4nc(cs4)-c4ccc5c(c4)c(c(-c4cccnc4[C@H](C)OC)n5CC)CC(C)(C)COC(=O)[C@@H]4CCCN(N4)C3=O)C(C)C)C[C@H]21 (atropisomer, axis not shown)" result_value="0.1 to 1 µM"
molecule="C=CC(=O)N1CCN(C(=O)N(C)[C@H](C(=O)N[C@H]2Cc3nc(cs3)-c3ccc4c(c3)c(c(-c3cccnc3[C@H](C)OC)n4CC)CC(C)(C)COC(=O)[C@@H]3CCCN(N3)C2=O)C(C)C)C2(CC2)C1 (atropisomer, axis not shown)" result_value="0.1 to 1 µM"
molecule="CCn1c(-c2cccnc2[C@H](C)OC)c2c3cc(ccc31)N1CCC[C@@H](C[C@H](NC(=O)[C@H](C(C)C)N(C)C(=O)C3(F)CCN(C(=O)C#CC(C)(C)N(C)C)CC3)C(=O)N3CCC[C@H](N3)C(=O)OCC(C)(C)C2)C1 (atropisomer, axis not shown) [Example A616]" result_value="1 to 10 µM"
molecule="CCn1c(-c2cccnc2[C@H](C)OC)c2c3cc(ccc31)-c1cccc(c1)C[C@H](NC(=O)[C@H](C(C)C)N(C)C(=O)C1(F)CCN(C(=O)/C=C/CN(C)C)CC1)C(=O)N1CCC[C@H](N1)C(=O)OCC(C)(C)C2 (atropisomer, axis not shown)" result_value="0.1 to 1 µM"
molecule="C=CC(=O)N1CC[C@H](C(=O)N(C)[C@H](C(=O)NC2C[C@@H]3CN(CCO3)c3ccc4c(c3)c(c(-c3cccnc3[C@H](C)OC)n4CC)CC(C)(C)COC(=O)[C@@H]3CCCN(N3)C2=O)C(C)C)C1 (stereo partly drawn)" result_value="> 10 µM"
molecule=C=CC(=O)N1CC[C@H](C(=O)N(C)[C@H](C(=O)N[C@H]2Cc3cc(O)cc(c3)-c3ccc4c(c3)c(c(-c3ccc(CN(C)C)nc3COC)n4CC)CC(C)(C)COC(=O)[C@@H]3CCCN(N3)C2=O)C(C)C)C1 result_value="1 to 10 µM"
molecule="C=CC(=O)N1CC(C(=O)N(C)[C@H](C(=O)N[C@H]2Cc3cc(O)cc(c3)-c3ccc4c(c3)c(c(-c3cccnc3[C@H](C)OC)n4CC)CC(C)(C)COC(=O)[C@@H]3CCCN(N3)C2=O)C(C)C)C1 (atropisomer, axis not shown)" result_value="0.1 to 1 µM"
molecule="C=CC(=O)N1CC[C@@]2(COCCN2C(=O)N(C)[C@H](C(=O)N[C@H]2Cc3nc(cs3)-c3ccc4c(c3)c(c(-c3cccnc3[C@H](C)OC)n4CC)CC(C)(C)COC(=O)[C@@H]3CCCN(N3)C2=O)C(C)C)C1 (atropisomer, axis not shown)" result_value="1 to 10 µM"
molecule=C=CC(=O)N1CC[C@H](C(=O)N(C)[C@H](C(=O)N[C@H]2Cc3cc(O)cc(c3)-c3ccc4c(c3)c(c(-c3cccnc3)n4[C@H](C)C#N)CC(C)(C)COC(=O)[C@@H]3CCCN(N3)C2=O)C(C)C)C1 result_value="1 to 10 µM"
molecule="C=C(F)C(=O)N1CC(N(C)C(=O)N(C)[C@H](C(=O)N[C@H]2Cc3nc(cs3)-c3ccc4c(c3)c(c(-c3cccnc3[C@H](C)OC)n4CC)CC(C)(C)COC(=O)[C@@H]3CCCN(N3)C2=O)C(C)C)C1 (atropisomer, axis not shown)" result_value="1 to 10 µM"
molecule="C=CC(=O)N1CCCN(C(=O)N(C)[C@H](C(=O)N[C@H]2Cc3cc(O)cc(c3)-c3ccc4c(c3)c(c(-c3cccnc3[C@H](C)OC)n4CC)CC(C)(C)COC(=O)[C@@H]3CCCN(N3)C2=O)C(C)C)CC1 (atropisomer, axis not shown)" result_value="0.01 to 0.1 µM"
molecule=CCn1c(-c2cccnc2[C@H](C)OC)c2c3cc(ccc31)C1CCCN(C1)C[C@H](NC(=O)[C@@H](COC1CN(C(=O)C#CC(C)(C)N(C)C)C1)C(C)C)C(=O)N1CCC[C@H](N1)C(=O)OCC(C)(C)C2 result_value="> 10 µM"

###

Target: KRAS G13D (Homo sapiens (Human), UniProt P01116+P62937, G13D)
Assay: Ras-Raf (BRAF RBD) disruption / FRET / MOA assay, KRAS G13D
Format: biochemical
Conditions: read-out: IC50* KRAS G13D FRET data
Each record here notes measured IC50.
MEASURE: IC50

compound="CC#CC(=O)N1CC[C@@]2(CCN([C@H](C(=O)N[C@H]3Cc4nc(cs4)-c4ccc5c(c4)c(c(-c4cccnc4[C@H](C)OC)n5CC)CC(C)(C)COC(=O)[C@@H]4CCCN(N4)C3=O)C(C)C)C2=O)C1 (atropisomer, axis not shown)" result_value="> 10000 nM"
compound=CCn1c(-c2cnccc2[C@H](C)OC)c2c3cc(ccc31)-c1cccc(c1)C[C@H](NC(=O)[C@H](C1CCCC1)N(C)C(=O)[C@H]1CCN(C(=O)C#CCN(C)C)C1)C(=O)N1CCC[C@H](N1)C(=O)OCC(C)(C)C2 result_value="1000 to 10000 nM"
compound="CO[C@@H](C)c1ncccc1-c1c2c3cc(ccc3n1CC(F)(F)F)-c1cccc(c1)C[C@H](NC(=O)[C@H](C(C)C)N1CC[C@]3(CCN(C(=O)C#CC(C)(C)N(C)C)C3)C1=O)C(=O)N1CCC[C@H](N1)C(=O)OCC(C)(C)C2 (atropisomer, axis not shown)" result_value="1000 to 10000 nM"
compound="C=CC(=O)N1C[C@@H](C)N(C(=O)N(C)[C@H](C(=O)N[C@H]2Cc3nc(cs3)-c3ccc4c(c3)c(c(-c3cccnc3[C@H](C)OC)n4CC)CC(C)(C)COC(=O)[C@@H]3CCCN(N3)C2=O)C(C)C)C[C@@H]1C (atropisomer, axis not shown)" result_value="100 to 1000 nM"

###

Each record here notes measured pIC50.
Target: NRAS Q61K (Homo sapiens (Human), UniProt P01111+P62937, Q61K)
Sequence (P01111 whole entry Q61K, one chain of several): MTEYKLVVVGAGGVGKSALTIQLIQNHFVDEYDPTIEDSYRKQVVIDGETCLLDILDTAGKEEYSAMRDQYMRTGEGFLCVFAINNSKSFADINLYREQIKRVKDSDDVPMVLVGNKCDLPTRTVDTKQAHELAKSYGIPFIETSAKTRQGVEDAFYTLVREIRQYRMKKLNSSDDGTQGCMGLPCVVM
Assay: Ras-Raf (BRAF RBD) disruption / FRET / MOA assay, NRAS Q61K
Format: biochemical
Settings: NRAS Q61K; Ras-Raf disruption/FRET/MOA assay; read-out: IC50* NRAS Q61K FRET data
pIC50: −log10 of the molar value.
MEASURE: pIC50

compound="C=CC(=O)N(C)C(=O)N(C)[C@H](C(=O)N[C@H]1Cc2nc(cs2)-c2ccc3c(c2)c(c(-c2cccnc2[C@H](C)OC)n3CC)CC(C)(C)COC(=O)[C@@H]2CCCN(N2)C1=O)C(C)C (atropisomer, axis not shown)" test_target="NRAS Q61K (Homo sapiens (Human), UniProt P01111+P62937, Q61K)" result_value="< 5.00"
compound="CO[C@@H](C)c1ncccc1-c1c2c3cc(ccc3n1CC(F)(F)F)-c1csc(n1)C[C@H](NC(=O)[C@H](C(C)C)N(C)C(=O)N1C[C@@H]3OCCN(C(=O)/C=C/C(F)F)[C@@H]3C1)C(=O)N1CCC[C@H](N1)C(=O)OCC(C)(C)C2 (atropisomer, axis not shown)" test_target="NRAS Q61K (Homo sapiens (Human), UniProt P01111+P62937, Q61K)" result_value="6.00 to 7.00"

###

Biological target: K-Ras G12C (Homo sapiens (Human), UniProt P01116+P62937, G12C)
Sequence (P01116-2 other isoform, or with tags, fused parts or gaps G12C): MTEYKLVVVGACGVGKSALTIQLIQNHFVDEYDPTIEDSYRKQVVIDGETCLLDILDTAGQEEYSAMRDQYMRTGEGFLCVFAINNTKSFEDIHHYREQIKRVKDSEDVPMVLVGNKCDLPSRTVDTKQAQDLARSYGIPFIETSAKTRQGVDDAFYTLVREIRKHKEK
Sequence (P62937 whole entry): as the sequence (P62937 whole entry) above
Experiment: Ras-Raf (BRAF RBD) disruption / FRET / MOA assay, KRAS G12C
Format: biochemical
Details: KRAS G12C; Ras-Raf disruption/FRET/MOA assay; read-out: IC50* KRAS G12C FRET data
pIC50: −log10 of the molar value.
MEASURE: pIC50

compound="C=CC(=O)N1CC[C@H](C(=O)N(C)[C@H](C(=O)N[C@H]2Cc3cc(O)cc(c3)-c3ccc4c(c3)c(c(-c3cccnc3[C@@H](OC)C3CC3)n4CC)CC(C)(C)COC(=O)[C@@H]3CCCN(N3)C2=O)C(C)C)C1 (atropisomer, axis not shown) [Example A206]" result_value="6.00 to 7.00"
compound=C=CC(=O)N1CC[C@H](C(=O)N(C)[C@H](C(=O)N[C@H]2Cc3cc(O)cc(c3)-c3ccc4c(c3)c(c(-c3cncc5c3[C@@H](OC)CC5)n4CC)CC(C)(C)COC(=O)[C@@H]3CCCN(N3)C2=O)C(C)C)C1 result_value="7.00 to 8.00"
compound="C=CC(=O)N1CCN(C(=O)N(C)[C@H](C(=O)N[C@H]2Cc3nc(cs3)-c3ccc4c(c3)c(c(-c3cccnc3[C@H](C)OC)n4CC)CC(C)(C)COC(=O)[C@@H]3CCCN(N3)C2=O)C(C)C)[C@H]2CC[C@H]21 (atropisomer, axis not shown)" result_value="7.00 to 8.00"
compound="C=CC(=O)N1CC[C@H](C(=O)N(C)[C@H](C(=O)N[C@H]2Cc3cccc(c3)-c3ccc4c(c3)c(c(-c3cc(C5CCN(C)CC5)cnc3[C@H](C)OC)n4CC)CC(C)(C)COC(=O)[C@@H]3CCCN(N3)C2=O)C(C)C)C1 (atropisomer, axis not shown) [Example A516]" result_value="5.00 to 6.00"
compound="C=CC(=O)N1CCC(C(=O)N(C)[C@H](C(=O)N[C@H]2Cc3cc(O)cc(c3)-c3ccc4c(c3)c(c(-c3ccccc3CCOC)n4CC)CC(C)(C)c3coc(n3)[C@@H]3CCCN(N3)C2=O)C(C)C)C1 (single isomer, unassigned)" result_value="< 5.00"
compound="CCn1c(-c2cccnc2[C@H](C)OC)c2c3cc(ccc31)-c1cccc(c1)C[C@H](NC(=O)[C@@H](COC1CN(C(=O)C#CC(C)(C)O)C1)C(C)C)C(=O)N1CCC[C@H](N1)C(=O)OCC(C)(C)C2 (atropisomer, axis not shown)" result_value="6.00 to 7.00"
compound=CCn1c(-c2cncnc2)c2c3cc(ccc31)-c1cccc(c1)C[C@H](NC(=O)[C@H](C(C)C)N(C)C(=O)[C@H]1CCN(C(=O)C#CCN3CCOCC3)C1)C(=O)N1CCC[C@H](N1)C(=O)OCC(C)(C)C2 result_value="6.00 to 7.00"
compound=CCn1c(-c2cnccc2[C@H](C)OC)c2c3cc(ccc31)-c1cc(O)cc(c1)C[C@H](NC(=O)[C@H](C(C)C)N(C)C(=O)[C@H]1CCN(C(=O)C#CCN(C)C)C1)C(=O)N1CCC[C@H](N1)C(=O)OCC(C)(C)C2 result_value="7.00 to 8.00"
